Molecular target: Ybr033w (UniProt P38073)
Sequence: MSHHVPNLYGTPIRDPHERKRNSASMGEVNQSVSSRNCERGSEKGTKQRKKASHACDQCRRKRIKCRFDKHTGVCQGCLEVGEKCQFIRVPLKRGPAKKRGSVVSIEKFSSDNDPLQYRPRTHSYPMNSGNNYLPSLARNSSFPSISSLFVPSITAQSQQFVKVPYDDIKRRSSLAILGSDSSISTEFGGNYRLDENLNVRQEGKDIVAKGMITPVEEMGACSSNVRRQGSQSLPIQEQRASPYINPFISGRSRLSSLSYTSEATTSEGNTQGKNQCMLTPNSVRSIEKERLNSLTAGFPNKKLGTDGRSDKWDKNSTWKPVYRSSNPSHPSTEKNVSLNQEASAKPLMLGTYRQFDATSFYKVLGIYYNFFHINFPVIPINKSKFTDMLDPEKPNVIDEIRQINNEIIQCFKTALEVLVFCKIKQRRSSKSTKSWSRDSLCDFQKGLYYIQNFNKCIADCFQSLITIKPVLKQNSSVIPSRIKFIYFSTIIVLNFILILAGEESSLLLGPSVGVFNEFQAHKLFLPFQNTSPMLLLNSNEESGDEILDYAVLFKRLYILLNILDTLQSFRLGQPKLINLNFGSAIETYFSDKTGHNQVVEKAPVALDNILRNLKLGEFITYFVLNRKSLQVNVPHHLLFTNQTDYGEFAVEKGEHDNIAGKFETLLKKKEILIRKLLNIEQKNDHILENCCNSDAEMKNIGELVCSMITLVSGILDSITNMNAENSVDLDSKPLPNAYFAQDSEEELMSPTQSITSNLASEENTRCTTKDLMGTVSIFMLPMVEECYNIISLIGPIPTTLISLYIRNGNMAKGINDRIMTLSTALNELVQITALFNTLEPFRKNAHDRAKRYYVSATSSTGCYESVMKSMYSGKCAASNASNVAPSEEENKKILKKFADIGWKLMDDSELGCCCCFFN
Experiment: PBM E-score (8-mer binding enrichment) (E-score (-0.5 to 0.5)); higher = stronger / more preferred TF binding
Conditions: protein concentration: 200 nM; construct: GST-full length
The full ranking holds about 33,000 sequences; the median of “E-score (-0.5 to 0.5)” is about -0.012, and the highest 2% start at about 0.29. For the sample, the highest values were picked, then their nearest neighbours and some sequences at random.
measured.attribute: PBM E-score
Respond using a number only.

Look over these answered cases.
INSERT INTO measurements (sequence, measured_attribute, result_number) VALUES
  ('AACTAACT', 'PBM E-score', 0.126),
  ('CGGAATTA', 'PBM E-score', 0.407),
  ('GTTGTCCA', 'PBM E-score', 0.00858),
  ('CCGAATAG', 'PBM E-score', 0.0196),
  ('CACTTTTA', 'PBM E-score', 0.0413);

Could you tell me which PBM E-score is on file for AGGAATAG ? 0.134

Could you tell me which PBM E-score is on file for TGGGATAA ? 0.123

Could you tell me which PBM E-score is on file for ACATATTA ? 0.349

Could you tell me which PBM E-score is on file for GTGGATAA ? 0.169

Could you tell me which PBM E-score is on file for AACTAATT ? 0.293

Could you tell me which PBM E-score is on file for CTGGATAA ? 0.316

Could you tell me which PBM E-score is on file for GGATAGTA ? 0.206

Could you tell me which PBM E-score is on file for CTATATTA ? 0.284

Could you tell me which PBM E-score is on file for CTATATTC ? 0.215

Could you tell me which PBM E-score is on file for GAATAACA ? 0.367
